Values from paper PMC10397247

systemUnderTest: T1, 4H2931-bH
T1 chain: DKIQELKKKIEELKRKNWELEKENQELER
assayText: two-hybrid library CCNG1;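 further: natural log of median RNA to DNA barcode read ratio; higher means stronger binding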
readoutType: interaction score
Answer with a number only.

> print(dat)
                                     binder        readouttype  number
1  DEIQELEKENEELERKIWELEKKIQELKR [4H166-bH]  interaction score    1.25
2  DKIQELEKENEELKREIWELKKKIQELER [4H2253-bH]  interaction score  -0.195
3  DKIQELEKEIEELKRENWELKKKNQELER [4H2143-bH]  interaction score  0.0986
4  DKIQELKKENEELKREIWELEKKNQELKR [4H2760-bH]  interaction score  -0.365
5  DEIQELEKENEELKRKIWELKKENQELER [4H235-bH]  interaction score  -0.301

// moving on: another record for interaction score
Req: Give its interaction score value. Item: DKIQELKKKIEELKRKNWELEKENQELER [4H2931-bH]
Resp: -0.492
